Molecular target: Aspartate--tRNA(Asp/Asn) ligase (Mycobacterium tuberculosis (strain ATCC 25618 / H37Rv)) (UniProt P9WFW3)
Sequence (whole entry): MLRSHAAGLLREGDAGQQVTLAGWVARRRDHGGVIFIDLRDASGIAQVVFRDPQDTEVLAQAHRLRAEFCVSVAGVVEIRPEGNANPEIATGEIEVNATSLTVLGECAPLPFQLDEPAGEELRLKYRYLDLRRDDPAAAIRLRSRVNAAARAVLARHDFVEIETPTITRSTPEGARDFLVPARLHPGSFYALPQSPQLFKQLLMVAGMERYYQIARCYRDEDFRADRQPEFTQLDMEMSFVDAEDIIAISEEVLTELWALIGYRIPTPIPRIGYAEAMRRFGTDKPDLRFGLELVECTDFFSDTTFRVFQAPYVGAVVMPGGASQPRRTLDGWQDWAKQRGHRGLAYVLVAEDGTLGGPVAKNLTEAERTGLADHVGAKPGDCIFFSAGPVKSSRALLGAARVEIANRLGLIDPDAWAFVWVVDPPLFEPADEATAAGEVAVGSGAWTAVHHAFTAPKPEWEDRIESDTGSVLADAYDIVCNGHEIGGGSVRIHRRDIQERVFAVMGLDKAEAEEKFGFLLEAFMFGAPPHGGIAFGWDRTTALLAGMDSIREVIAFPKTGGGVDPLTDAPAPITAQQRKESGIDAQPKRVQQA
Experiment: Assay for Asp RNA synthetase-1 from Mycobacterium tuberculosis
Format: functional
Parameters: scale not given: in the data most compounds retested in dose-response had high values
Details: 30 µM
MEASUREMENT TYPE: Percent Effect (%)
One number for each entry, in %.

O=C(c1cccc(CNCC2CNc3ccnn3C2)c1)N1CCCC1 (stereo unspecified) :: -1.15
Cn1ccnc1CN1CCN(c2ccc(C#N)cn2)CC1 :: 1.72
CC(C)c1nc(CC(=O)Nc2nc(CN3CCCCCC3)cs2)cs1 :: -0.836
Cc1cnn(CCNCc2ccccc2OCc2cccnc2)c1 :: 4.5
N#Cc1ccc(CN2CCN(C(=O)C3CCC3)[C@@H]3CS(=O)(=O)C[C@@H]32)cc1 :: -2.41

Please look at the following molecule next.
query: GET /values?readout=Percent Effect&item= CN(C)C(=O)N1C[C@@H]2CC[C@H](C1)N(C(=O)CCCn1cncn1)C2
result: 1.35
